Reference source for all entries: PubChem BioAssay

Would you mind telling me the reported inhibition of each entry?
Assay: growth suppression of yeast trafficking mutant, preliminary HTS, modulators of trafficking downstream of Golgi apparatus project, 1536-format plate, OD 615 nm (AID 637); note: test concentration not given here
Details: yeast transport mutant growth, absorbance 615 nm, 18 h; stronger effect = higher value
Numbers only, in %.

Below are worked cases with known answers.
[[record]]
molecule = "CCOC(=O)Cn1c(=N)n(CCOc2cccc(C)c2)c2ccccc21"
scale_unit = "%"
endpoint_value = -0.79

[[record]]
molecule = "Nc1ccc(-n2c(N)c(C(=O)NCc3ccc4c(c3)OCO4)c3nc4ccccc4nc32)cc1"
scale_unit = "%"
endpoint_value = 6.61

[[record]]
molecule = "COc1ccc(OC)c(C2=NOC(C(=O)Nc3cccnc3)C2)c1 (stereo not given)"
scale_unit = "%"
endpoint_value = 1.09


Batch of 2 molecules: report inhibition for each.
1. Cn1cc(C(=O)c2ccc(F)cc2)cc1-c1nc2ccccc2n1C
2. Cc1nc(CNS(=O)(=O)c2ccc3c(c2)OCCO3)cs1

Reply |
1. 1.64
2. 9.51

Batch of 5 molecules: report inhibition for each.
1. CC(=O)Nc1ccc(S(=O)(=O)N2CCN=C2C)cc1
2. Cc1cc(NC(=O)NC(=O)c2cccc(OC(F)(F)C(F)F)c2)n[nH]1
3. CCC(C)(C)n1nnnc1C(c1ccncc1)N1CCN(c2cccc(OC)c2)CC1 (stereo not given)
4. C=CCN(C(=O)CNS(=O)(=O)c1ccccc1)C(C(=O)NCCOC)c1ccncc1 (stereo not given)
5. CSCCC(NC(=O)c1ccco1)C(=O)OC(C)C(=O)NC(=O)NC1CCCCC1 (stereo not given)

Reply |
[-5.08, 20, 4.26, -9.84, 8.52]
